This section presents compounds with their documented inhibition values.
Biological target: Disintegrin and metalloproteinase domain-containing protein 17 (Homo sapiens)
Assay: inhibition of ADAM17 peptide cleavage – biochemical, QFRET, primary screen (AID 720648);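 note: 0% = DMSO-only wells as the low control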
Conditions: recombinant ADAM17, EDANS/DABCYL FRET peptide cleavage; at 6.95 µM; active compounds read high
The campaign covered roughly 370,000 compounds. About 3,100 (0.84%) were called active. The sample holds actives, similar compounds and a random draw of the others, so the mix is not that of the screen.

# compound, inhibition (%)
rows = [
    ("CCN(C(=O)[C@@H](C1CC1)[C@@H](O)c1ccc2ccccc2c1)c1ccccc1", -1.62),
    ("COC(=O)c1c(C)[nH]c(C(=O)NCCc2ccc(S(N)(=O)=O)cc2)c1C", -14.5),
    ("Cc1cccc(OCCC(=O)OCc2csc(CC(=O)Nc3ccccc3C)n2)c1", -0.41),
    ("NS(=O)(=O)c1ccc(NC(=O)COC(=O)C2(c3ccc(F)cc3)CCCC2)cc1", 10.8),
    ("O=C(COC(=O)c1ccccc1)Nc1ccccc1Sc1ccccc1", 9.99),
    ("COC(=O)C[C@@H]1CC[C@@H]2[C@@H](COc3ccc(NC(=O)Nc4ccc(F)c(F)c4)cc3C(=O)N2C)O1", 1.31),
    ("O=S1(=O)c2c(cccc2N2CC[C@H](O)C2)O[C@@H]2CCN1C2", -10.8),
    ("O=C(CSCc1ccc(Br)cc1)Nc1ccc(S(=O)(=O)N2CCCCCC2)cc1", 12.9),
    ("O=C(CSc1nc2ccccc2o1)N/N=C/c1ccccc1C(=O)O", -4.58),
    ("O=C(COC(=O)C1(c2ccc(F)cc2)CCCC1)N1CCNC1=O", -6.77),
    ("Cn1c(=O)c2c(nc(N/N=C/c3cccs3)n2Cc2ccc(Br)cc2)n(C)c1=O", 9.47),
    ("CN(C)S(=O)(=O)c1cccc(NC(=O)COC(=O)/C=C/c2cccs2)c1", -0.31),
    ("CCC(C)(C)c1ccc(Oc2ccc(NC(=O)COC(=O)C3=COCCO3)cc2)cc1", 15.7),
    ("COc1cccc(/C=N/NC(=O)c2cccc([N+](=O)[O-])c2)c1OS(=O)(=O)c1ccc(C)cc1", 9.36),
    ("N/C(Cc1ccc([N+](=O)[O-])cc1)=N\\OC(=O)COc1ccc2ccccc2c1", 10.8),
    ("COc1ccc([N+](=O)[O-])cc1NCC(=O)c1ccc(C)cc1", 0.13),
    ("CCOC(=O)C1CCN(C(=O)C(C)(C)NC(=O)Nc2ccc(F)c(F)c2)CC1", 0.09),
    ("CN(C)S(=O)(=O)c1cccc(NC(=O)COC(=O)c2cc(=O)[nH]c(=O)[nH]2)c1", 0.24),
    ("COC(=O)[C@]12C[C@H](CC(=O)NCc3ccccc3)C(=O)N(Cc3ccccc3)C1=C[C@H](COCc1ccccc1)O[C@@H]2C", 1.65),
    ("O=C(c1ccncc1)N1CC[C@H]2[C@H](CCCN2Cc2ccc(F)cc2)C1", 1.14),
    ("O=C(CN1CCCCCC1)Nc1ccc(S(=O)(=O)N2CCCCC2)cc1", -1.57),
    ("O=C1CCC2(CCC(c3ccc(Cl)cc3)CC2)N1CCO (stereo not drawn)", 1.61),
    ("CCOc1ccc(S(=O)(=O)NCCSc2ccccc2)cc1", 6.1),
    ("Cc1ccc(S(=O)(=O)NCCSc2ccccc2)cc1[N+](=O)[O-]", 10.7),
    ("CC(=O)N1CCc2cc(S(=O)(=O)NCCC(=O)N3CCCC3)ccc21", -3.27),
    ("Cc1ccc(/C=N/NC(=O)CSc2nc3ccccc3o2)cc1", 10.3),
    ("O=C(COC(=O)c1ccccn1)Nc1cccc2ccccc12", -0.52),
    ("O=C(Nc1cc(Cl)cc(Cl)c1)OCCN1CCCC12CCC(c1ccccc1)CC2 (stereo not drawn)", 1.56),
    ("COC(=O)c1c(C)oc(C)c1S(=O)(=O)NCc1ccc(Cl)cc1", -1.53),
    ("Cc1ccc(-n2c(Cc3cccs3)nnc2SCC(=O)OC(C)C)cc1", -0.84),
    ("O=[N+]([O-])c1cc(S(=O)(=O)NCCc2ccccn2)ccc1Cl", 0.55),
    ("COc1ccc(NC(=O)COC(=O)CNC(=O)C2CCCCC2)cc1", -0.83),
    ("COc1ccc(-c2cnc3c(c2)C(=O)N([C@H](C)CO)C[C@@H](C)[C@H](CN(C)Cc2ccccc2)O3)cc1", 2.22),
    ("O=[N+]([O-])c1ccc(N2CCN(S(=O)(=O)c3ccc4ccccc4c3)CC2)cc1NCc1ccco1", -3.62),
    ("COC(=O)c1ccccc1-n1cc(COC(=O)NCCc2ccccc2)nn1", -7.96),
    ("CC(C)(C)OC(=O)NCCc1ccccc1/C=C/S(=O)(=O)NCc1ccc(F)cc1", 1.57),
    ("O=C(CN1CCC(NC(=O)NCc2ccccc2)CC1)Nc1ccc2c(c1)OCCO2", -4.62),
    ("Cc1cc(C)cc(OCC(=O)O/N=C(\\N)Cc2ccc([N+](=O)[O-])cc2)c1", 3.53),
]

----------
Target: Disintegrin and metalloproteinase domain-containing protein 17 (Homo sapiens)
Assay: inhibition of ADAM17 peptide cleavage – biochemical, QFRET, primary screen (AID 720648);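 note: 0% = DMSO-only wells as the low control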
Settings: recombinant ADAM17, EDANS/DABCYL FRET peptide cleavage; at 6.95 µM; active compounds read high
Hit rate of the full screen: of about 370,000 compounds, about 3,100 (0.84%) were called active. Only a selection was taken, and actives are over-represented in it overall.

# molecule, inhibition [%]
measured = [
    ("O=C(Nc1ccc(F)cc1)N1CCCC(c2nc3c(nnn3Cc3ccccc3Cl)c(=O)[nH]2)C1 (configuration not stated)", -4.29),
    ("COC(=O)c1ccccc1Sc1c(/C=N/OCc2ccc(Cl)cc2)c(C(F)(F)F)nn1C", -4.94),
    ("COc1ccc2c(c1)CN1CN(CCc3ccccc3)S(=O)(=O)CC21 (configuration not stated)", -6.46),
    ("O=C(NCCCc1ccccc1)[C@H](Cc1ccccc1)NC1(C(=O)NCCc2c[nH]c3ccccc23)CCC1", 3.66),
    ("CCC(=O)OCc1c(C(F)(F)F)nn(C)c1Oc1cccc(C(F)(F)F)c1", -2.77),
    ("Cc1ccc(Cn2cc(COC(=O)N(C)Cc3ccccc3)nn2)cc1", -1.03),
    ("CC(=O)c1cc(-c2ccc3ccccc3c2)c(=O)n2c1CCC2", -8.84),
]

----------
This section presents compounds with their documented inhibition values.
Target: Disintegrin and metalloproteinase domain-containing protein 17 (Homo sapiens) (UniProt P78536)
Sequence (P78536 215-824 limits assumed): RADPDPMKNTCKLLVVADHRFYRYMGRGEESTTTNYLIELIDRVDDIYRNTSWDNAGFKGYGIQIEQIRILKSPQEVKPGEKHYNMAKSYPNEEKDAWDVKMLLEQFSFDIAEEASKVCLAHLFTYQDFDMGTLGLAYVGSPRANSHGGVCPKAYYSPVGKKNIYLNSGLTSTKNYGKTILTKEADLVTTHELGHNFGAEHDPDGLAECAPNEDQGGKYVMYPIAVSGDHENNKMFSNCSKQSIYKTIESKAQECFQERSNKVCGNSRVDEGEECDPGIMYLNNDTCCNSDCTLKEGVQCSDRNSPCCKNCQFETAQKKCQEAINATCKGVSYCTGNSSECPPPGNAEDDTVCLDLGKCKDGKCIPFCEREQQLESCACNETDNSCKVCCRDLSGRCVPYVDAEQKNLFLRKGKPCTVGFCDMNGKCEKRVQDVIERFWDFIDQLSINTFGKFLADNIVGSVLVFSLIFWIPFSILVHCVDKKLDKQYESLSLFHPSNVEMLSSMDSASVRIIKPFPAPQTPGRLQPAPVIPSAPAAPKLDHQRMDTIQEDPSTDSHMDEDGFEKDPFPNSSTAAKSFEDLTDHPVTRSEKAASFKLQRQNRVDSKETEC
Assay: inhibition of ADAM17 peptide cleavage – biochemical, QFRET, primary screen (AID 720648);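 note: 0% = DMSO-only wells as the low control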
Details: recombinant ADAM17, EDANS/DABCYL FRET peptide cleavage; at 6.95 µM; active compounds read high
Among all 370,000 compounds or so, about 3,100 (0.84%) were called active. What follows is part of a selection rich in actives, with near analogues and random picks from the rest.

# compound, inhibition / %
measured = [
    ("C(=C\\c1ccccc1)/CSc1nnc(-c2cccnc2)n1Cc1ccco1", -2.99),
    ("Cc1ccc(-c2nc(CS(=O)(=O)CC(=O)NCc3ccc4c(c3)OCO4)c(C)o2)cc1", -1.45),
    ("COCCNC(=O)c1ccc(-n2c(SCc3cccnc3)nc3ccccc3c2=O)cc1", -0.26),
    ("N#Cc1nc(Cc2cccc3ccccc23)oc1NCc1ccc2c(c1)OCO2", 9.51),
    ("CCN(c1ccc(NC(=O)COC(=O)CCc2nc3ccccc3n2-c2ccccc2)cc1)C(C)C", 4.08),
    ("C=CCC[C@@H](Cc1ccc(F)cc1)C(=O)O[C@H](CNC(=O)[C@H](CC=C)CC(=O)N(CCO)Cc1ccccc1)c1ccccc1", 13.4),
    ("O=C(CCNS(=O)(=O)c1ccccc1C(F)(F)F)NCc1ccc2c(c1)OCO2", -0.25),
    ("Cc1ccc(NC(=O)c2cc(C)nn2-c2ccccc2)c(C)c1", 3.11),
    ("COc1ccc(-c2cc(C3CCN(c4ncccc4[N+](=O)[O-])CC3)[nH]n2)cc1", 9.29),
    ("CCCCNC(=O)C[C@@H]1C(=O)N(CCc2ccc(Cl)cc2)C2=CCCC[C@]21C(=O)OCC", -1.53),
    ("Cc1cc(C)cc(NS(=O)(=O)c2ccc(Oc3ncc(C(F)(F)F)cc3Cl)cc2)c1", 10.8),
    ("COC(=O)[C@H](C(C)C)N(CCc1cn(Cc2ccccc2)nn1)S(=O)(=O)c1ccc(F)cc1Br", -0.43),
    ("COc1ccc(-c2cc(-c3nnc(SCc4ccc([N+](=O)[O-])cc4)n3N)[nH]n2)cc1", -2.61),
    ("O=C(CSc1nnc(-c2cccc(Cl)c2)n1Cc1ccco1)Nc1ccc(OCc2ccccc2)cc1", 4),
    ("Cc1ccc(OCc2nnc(SC/C=C/c3ccccc3)n2Cc2ccco2)cc1", 10.7),
    ("Cc1cc(=O)[nH]c(SCC(=O)Nc2ccc(F)cc2F)n1", 6.65),
    ("CC1(C(=O)NCc2ccc3c(c2)OCO3)CCN1CCc1ccccc1 (stereo unspecified)", 4.37),
    ("CCOc1ccccc1CNS(=O)(=O)c1cc(-c2cc(C)no2)ccc1C", 10.2),
    ("CN(C)S(=O)(=O)c1cccc(C(=O)N/N=C\\c2ccco2)c1", 1.33),
    ("O=C(CSc1nnc(-c2ccccc2)n1Cc1ccco1)Nc1ccccc1-c1ccccc1", 3.73),
    ("CCn1c(=O)n2n(c1=O)[C@@]1(C=C3CCCC[C@H]32)N=C(NC(=O)c2ccccc2)N(Cc2ccccc2)[C@H]1Cc1ccccc1", 5.91),
]

Reference source: PubChem BioAssay AID720648
